log10 Ki for assorted compounds
target_or_test_system: ROCK1 (Homo sapiens (Human), UniProt Q13464)
Sequence (Q13464 2-1354 limits assumed): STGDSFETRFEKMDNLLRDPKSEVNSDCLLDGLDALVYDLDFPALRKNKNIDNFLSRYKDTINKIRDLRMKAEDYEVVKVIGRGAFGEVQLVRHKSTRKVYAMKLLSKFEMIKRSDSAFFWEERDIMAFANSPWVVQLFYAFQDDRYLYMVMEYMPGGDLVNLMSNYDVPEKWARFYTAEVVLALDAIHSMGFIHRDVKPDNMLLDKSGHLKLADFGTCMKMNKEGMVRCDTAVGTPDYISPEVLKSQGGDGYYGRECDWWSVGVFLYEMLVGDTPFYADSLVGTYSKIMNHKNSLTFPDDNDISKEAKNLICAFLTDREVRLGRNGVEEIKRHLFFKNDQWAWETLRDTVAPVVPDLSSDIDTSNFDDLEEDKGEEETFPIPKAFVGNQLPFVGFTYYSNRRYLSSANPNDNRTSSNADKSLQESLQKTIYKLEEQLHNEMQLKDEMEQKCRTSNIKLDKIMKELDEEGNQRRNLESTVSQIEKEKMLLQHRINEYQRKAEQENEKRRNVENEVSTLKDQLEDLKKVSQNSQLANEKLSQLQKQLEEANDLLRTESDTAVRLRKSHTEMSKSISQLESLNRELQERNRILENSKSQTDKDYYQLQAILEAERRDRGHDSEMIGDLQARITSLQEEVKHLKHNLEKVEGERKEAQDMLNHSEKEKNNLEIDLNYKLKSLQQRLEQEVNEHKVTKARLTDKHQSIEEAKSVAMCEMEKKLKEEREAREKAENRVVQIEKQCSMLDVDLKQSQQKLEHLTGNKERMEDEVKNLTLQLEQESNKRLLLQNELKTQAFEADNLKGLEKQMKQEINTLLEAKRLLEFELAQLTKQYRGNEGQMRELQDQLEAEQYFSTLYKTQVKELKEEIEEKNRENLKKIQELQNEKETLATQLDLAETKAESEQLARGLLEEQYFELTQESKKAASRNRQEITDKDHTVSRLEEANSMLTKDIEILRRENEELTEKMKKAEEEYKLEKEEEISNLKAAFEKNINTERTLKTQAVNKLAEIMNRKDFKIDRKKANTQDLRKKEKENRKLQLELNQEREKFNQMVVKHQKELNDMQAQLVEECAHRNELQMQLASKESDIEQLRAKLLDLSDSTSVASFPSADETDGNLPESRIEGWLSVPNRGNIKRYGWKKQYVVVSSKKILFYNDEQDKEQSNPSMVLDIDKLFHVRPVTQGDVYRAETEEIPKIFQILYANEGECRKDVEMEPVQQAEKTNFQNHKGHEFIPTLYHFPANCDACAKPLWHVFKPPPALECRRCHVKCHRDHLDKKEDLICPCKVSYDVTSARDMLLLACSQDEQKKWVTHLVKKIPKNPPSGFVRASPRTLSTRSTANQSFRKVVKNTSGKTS
applied_conditions: read-out: ROCK1 Average Ki; 1 μM ATP
Remember, log10 of Ki, in nM.

Past entries and their recorded results:
>>> val("Cc1cnc(-c2c[nH]c3nccc(N4CCC5(CCCCN5)C4)c23)s1 (centres unmarked)")
2.59
>>> val("c1ncc(-c2c[nH]c3nccc(N[C@@H]4CCCNC4)c23)cn1")
1.93
>>> val("c1cncc(-c2c[nH]c3nccc(N4CCCCC4)c23)c1")
2.12
>>> val("c1cc(N2CCC2)c2c(-c3cn[nH]c3)c[nH]c2n1")
2.85
>>> val("c1ncc(-c2c[nH]c3nccc(N4CCC[C@H](N5CCC5)C4)c23)cn1")
2.84
>>> val("c1ncc(-c2c[nH]c3nccc(NC4CCCNC4)c23)cn1 (centres unmarked)")
2.34

Request: Lab note: need log10 Ki for Cn1ccc(-c2c[nH]c3nccc(N4CCCCC4)c23)n1 on ROCK1 (Homo sapiens (Human), UniProt Q13464), anyone have it?
Response: 4.00

Request: Lab note: need log10 Ki for c1ncc(-c2c[nH]c3nccc(OCC4CCCNC4)c23)cn1 (centres unmarked) on ROCK1 (Homo sapiens (Human), UniProt Q13464), anyone have it?
Response: 1.53

Request: Lab note: need log10 Ki for CCN1CCCC[C@@]12CCCN(c1ccnc3[nH]cc(-c4ccncn4)c13)C2 on ROCK1 (Homo sapiens (Human), UniProt Q13464), anyone have it?
Response: 1.30

Request: Lab note: need log10 Ki for CN[C@@H]1CCCN(c2ccnc3[nH]cc(-c4cncnc4)c23)C1 on ROCK1 (Homo sapiens (Human), UniProt Q13464), anyone have it?
Response: 2.58

Request: Lab note: need log10 Ki for c1ncc(-c2c[nH]c3nccc(N4CCCC5(CCCCN5)C4)c23)cn1 (centres unmarked) on ROCK1 (Homo sapiens (Human), UniProt Q13464), anyone have it?
Response: 2.33

Request: Lab note: need log10 Ki for Cc1ncc(-c2c[nH]c3nccc(N4CCCC5(CCCCN5)C4)c23)cn1 (centres unmarked) on ROCK1 (Homo sapiens (Human), UniProt Q13464), anyone have it?
Response: 5.00

Request: Lab note: need log10 Ki for c1ccc(-c2c[nH]c3nccc(N4CCCC5(CCCCN5)C4)c23)nc1 (centres unmarked) on ROCK1 (Homo sapiens (Human), UniProt Q13464), anyone have it?
Response: 2.50

Request: Lab note: need log10 Ki for c1cnc(-c2c[nH]c3nccc(N4CCCC5(CCCCN5)C4)c23)nc1 (centres unmarked) on ROCK1 (Homo sapiens (Human), UniProt Q13464), anyone have it?
Response: 5.00

Request: Lab note: need log10 Ki for CN1CCCC[C@@]12CCCN(c1ccnc3[nH]cc(-c4ccncn4)c13)C2 on ROCK1 (Homo sapiens (Human), UniProt Q13464), anyone have it?
Response: 1.31

Request: Lab note: need log10 Ki for c1ncc(-c2c[nH]c3nccc(N4CCC[C@H](NC5CC5)C4)c23)cn1 on ROCK1 (Homo sapiens (Human), UniProt Q13464), anyone have it?
Response: 2.55

Request: Lab note: need log10 Ki for Cc1noc(C)c1-c1c[nH]c2nccc(N3CCCC4(CCCCN4)C3)c12 (centres unmarked) on ROCK1 (Homo sapiens (Human), UniProt Q13464), anyone have it?
Response: 5.00

Request: Lab note: need log10 Ki for c1ncc(-c2c[nH]c3nccc(N4CC[C@]5(CCCCN5)C4)c23)cn1 on ROCK1 (Homo sapiens (Human), UniProt Q13464), anyone have it?
Response: 2.63

Request: Lab note: need log10 Ki for Nc1cccc(-c2c[nH]c3nccc(N4CCCCC4)c23)n1 on ROCK1 (Homo sapiens (Human), UniProt Q13464), anyone have it?
Response: 1.46

Request: Lab note: need log10 Ki for CNc1ccnc2[nH]cc(C#N)c12 on ROCK1 (Homo sapiens (Human), UniProt Q13464), anyone have it?
Response: 1.64

Request: Lab note: need log10 Ki for c1ncc(-c2c[nH]c3nccc(N4CC[C@]5(CCCN5)C4)c23)cn1 on ROCK1 (Homo sapiens (Human), UniProt Q13464), anyone have it?
Response: 5.00

Request: Lab note: need log10 Ki for c1ncc(-c2c[nH]c3nccc(N4CCC5(CCNCC5)C4)c23)cn1 on ROCK1 (Homo sapiens (Human), UniProt Q13464), anyone have it?
Response: 0.97

Request: Lab note: need log10 Ki for c1cc(-c2c[nH]c3nccc(N4CCCCC4)c23)cnn1 on ROCK1 (Homo sapiens (Human), UniProt Q13464), anyone have it?
Response: 0.95

----------
target_or_test_system: MRCKβ (Homo sapiens (Human), UniProt Q9Y5S2)
test: MRCKβ kinase assay (IMAP fluorescence polarization)
Type: biochemical
applied_conditions: 1 μM ATP; read-out: MRCK-B Average Ki
measurement_label: pKi
The quantity pKi is defined as the negative base-10 logarithm of the molar concentration.

Past entries and their recorded results:
>>> val("c1ncc(-c2c[nH]c3nccc(N4CCC[C@H](N5CCOCC5)C4)c23)cn1 [Example E96]")
7.54
>>> val("CNC1CCN(c2ccnc3[nH]cc(-c4cncnc4)c23)CC1 [Example E63]")
8.70
>>> val("C[C@H]1CCCN1c1ccnc2[nH]cc(C#N)c12 [Example E111]")
7.40

Request: Form field: reported pKi of c1ncc(-c2c[nH]c3nccc(N4CC[C@]5(CCCN5)C4)c23)cn1 [Example E123]
Response: 8.01

Request: Form field: reported pKi of Fc1cccnc1-c1c[nH]c2nccc(N3CCCC4(CCCCN4)C3)c12 (stereo not shown) [Example E169]
Response: 9.97

Request: Form field: reported pKi of c1cc(-c2c[nH]c3nccc(N4CCC5(CCCCN5)C4)c23)cnn1 (stereo not shown) [Example E162]
Response: 9.66

Request: Form field: reported pKi of Cc1cnc(-c2c[nH]c3nccc(N4CCCC5(CCCCN5)C4)c23)s1 (stereo not shown) [Example E147]
Response: 10.03

Request: Form field: reported pKi of N#Cc1c[nH]c2nccc(N3CCNCC3)c12 [Example E34]
Response: 7.28

Request: Form field: reported pKi of c1ncc(-c2c[nH]c3nccc(NC4CCCNC4)c23)cn1 (stereo not shown) [Example E242]
Response: 7.71

Request: Form field: reported pKi of c1ncc(-c2c[nH]c3nccc(N4CCC5(CCNCC5)C4)c23)cn1 [Example E191]
Response: 8.69

Request: Form field: reported pKi of CN1CCCC[C@@]12CCCN(c1ccnc3[nH]cc(-c4ccncn4)c13)C2 [Example E206]
Response: 10.56

Request: Form field: reported pKi of CN1CCN(C(=O)[C@@H]2CCCN2c2ccnc3[nH]cc(C#N)c23)CC1 [Example E204]
Response: 6.92

Request: Form field: reported pKi of c1ncc(-c2c[nH]c3nccc(N[C@H]4CCCNC4)c23)cn1 [Example E87]
Response: 7.27

----------
target_or_test_system: UniProt:Q9Y5S2
test: MRCKβ kinase assay (IMAP fluorescence polarization)
Format: biochemical
applied_conditions: 1 μM ATP; read-out: MRCK-B Average Ki
For each record, check the reported Ki: if it is below 8 nM write true, else write false.

The examples below pair each entry with its known result.
>>> class_name("CN[C@H]1CCCN(c2ccnc3[nH]cc(-c4ccc(F)cn4)c23)C1 [Example E51]")
"true"
>>> class_name("Cc1cnc(-c2c[nH]c3nccc(N4CCCC5(CCCN5)C4)c23)s1 (stereo not drawn) [Example E143]")
"true"
>>> class_name("NC1CCCN(c2ccnc3[nH]cc(-c4cncnc4)c23)C1 (stereo not drawn) [Example E59]")
"true"
>>> class_name("c1cnc(-c2c[nH]c3nccc(N4CCCC5(CCCCN5)C4)c23)cn1 (stereo not drawn) [Example E189]")
"true"
>>> class_name("c1cc(-c2c[nH]c3nccc(N4CCCCC4)c23)[nH]n1 [Example E181]")
"false"
>>> class_name("c1ncc(-c2c[nH]c3nccc(N4CC5CNCC5C4)c23)cn1 (stereo not drawn) [Example E199]")
"true"
>>> class_name("CNc1ccnc2[nH]cc(C#N)c12 [Example E37]")
"false"
>>> class_name("N#Cc1c[nH]c2nccc(N3CCC[C@H]3CO)c12 [Example E38]")
"true"
>>> class_name("Cc1cnc(-c2c[nH]c3nccc(N4CCC5(CCCCN5)C4)c23)s1 (stereo not drawn) [Example E144]")
"true"
>>> class_name("CCN1CCCCC12CCCN(c1ccnc3[nH]cc(-c4nccs4)c13)C2 (stereo not drawn) [Example E209]")
"true"

Request: Decide: Ki of N#Cc1c[nH]c2nccc(N3CCCCC3)c12 [Example E35] strictly below 8 nM?
Response: false
